- System: DDR2
- particulars: concentration: 1 μM, replicates: in singlicate; n = 1;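 further: KINOMEscan kinase panel screen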
assay readout: %Inh (%)
# output: bare number, implied unit %

- smiles code: "CCNC(=O)/C=C/c1n[nH]c2cc(Sc3ccccc3C(=O)NC)ccc12"
  target: "DDR2"
  assay readout: "%Inh"
  test result: 0
- smiles code: "CC(=O)Nc1cn2nc(Oc3cccc(NC(=O)c4cccc(C(F)(F)F)c4)c3)ccc2n1"
  target: "DDR2"
  assay readout: "%Inh"
  test result: 100
- smiles code: "Cn1cc(-c2ccc3c(c2)CCN3C(=O)Cc2cc(F)cc(C(F)(F)F)c2)c2c(N)ncnc21"
  target: "DDR2"
  assay readout: "%Inh"
  test result: 85

Here is the next item to consider.
GET /value?item= `Cc1cccc(Nc2nc(NCCN)ncc2C(N)=O)c1` &field=%Inh returns 20

###

- Tested on: ABL2
- particulars: concentration: 1 μM, replicates: in singlicate; n = 1
assay readout: %Inh

Some entries whose results are on file:
- smiles code: "O=C(Nc1n[nH]c2nc(-c3cccc(O)c3)ccc12)C1CC1"
  assay readout: "%Inh"
  test result: "27%"
- smiles code: "Cc1cc(-c2ccnc(Nc3cccc(C#N)c3)n2)cc(C)c1O"
  assay readout: "%Inh"
  test result: "37%"
- smiles code: "CCn1c(-c2nonc2N)nc2c(-c3ccccc3)ncc(OCCCN)c21.O=C(O)C(F)(F)F.O=C(O)C(F)(F)F"
  assay readout: "%Inh"
  test result: "16%"
- smiles code: "CN(C)c1ncnc2nc[nH]c12"
  assay readout: "%Inh"
  test result: "0%"
- smiles code: "CCOc1nccc(-c2c(-c3ccc(F)cc3)ncn2C2CCNCC2)n1"
  assay readout: "%Inh"
  test result: "0%"
- smiles code: "Fc1cc(Cl)ccc1Nc1ccnc2cc(-c3ccc(CN4CCOCC4)o3)ccc12"
  assay readout: "%Inh"
  test result: "96.4%"

GET /value?item= `Cc1cccc(Nc2nc(NCCN)ncc2C(N)=O)c1` &field=%Inh returns 0%

GET /value?item= `CCNC(=O)/C=C/c1n[nH]c2cc(Sc3ccccc3C(=O)NC)ccc12` &field=%Inh returns 24%

GET /value?item= `Cc1ccc(NC(=O)c2ccnc(N3CCCCC3)c2)cc1-c1ccc(C(=O)NCC2CC2)cc1` &field=%Inh returns 54%

GET /value?item= `CCNc1nccc(-c2c(-c3ccc(F)cc3)ncn2C2CCN(C)CC2)n1` &field=%Inh returns 0%

GET /value?item= `COc1cccc(NC(=O)NCCNc2ccnc(Nc3ccc(F)cc3)n2)c1` &field=%Inh returns 6%

###

- System: ADCK4
- particulars: concentration: 1 μM, replicates: in singlicate; n = 1
assay readout: %Inh (%)
# output: bare number, implied unit %

Some entries whose results are on file:
- smiles code: "CN1CCN(Cc2ccc(NC(=O)Nc3ccc(N(C)c4ccnc(Nc5ccc(CS(C)(=O)=O)cc5)n4)cc3)cc2)CC1.Cl"
  %Inh / %: 34
- smiles code: "Cc1ccc(NC(=O)c2cccc(N3CCCCC3)c2)cc1-c1ccc(C(=O)NCC2CC2)cc1"
  %Inh / %: 1
- smiles code: "CCn1cnc2c(NCc3ccccc3)ncnc21"
  %Inh / %: 0
- smiles code: "Nc1ncc(-c2ccc3nccc(-c4ccncc4)c3c2)cc1S(=O)(=O)N1CCCCC1"
  %Inh / %: 33
- smiles code: "CC(C)c1nc(-c2cccc(NS(=O)(=O)c3c(F)cccc3F)c2)c(-c2ccnc(Nc3ccc(N4CCOCC4)nc3)n2)s1.Cl"
  %Inh / %: 100

GET /value?item= `Cc1cccc(Nc2nc(N[C@H]3CCCC[C@H]3N)ncc2C(N)=O)c1.Cl` &field=%Inh returns 29

GET /value?item= `CCn1c(-c2nonc2N)nc2c(-c3ccccc3)ncc(OCCCN)c21.O=C(O)C(F)(F)F.O=C(O)C(F)(F)F` &field=%Inh returns 26

GET /value?item= `Cn1cc(-c2cnc(N)c3c(-c4ccc5c(c4)CCN5C(=O)Cc4ccccc4)csc23)cn1` &field=%Inh returns 0

###

- System: MST3
- Construct: gene STK24
- particulars: concentration: 1 μM, replicates: in singlicate; n = 1
assay readout: %Inh (%)
# output: bare number, implied unit %

- compound: "CN1CCN(Cc2ccc(NC(=O)Nc3ccc(N(C)c4ccnc(Nc5ccc(CS(C)(=O)=O)cc5)n4)cc3)cc2)CC1.Cl"
  scale unit: "%"
  test result: 68
- compound: "Cc1ccc(NC(=O)c2cccc(N3CCCCC3)c2)cc1-c1ccc(C(=O)NCC2CC2)cc1"
  scale unit: "%"
  test result: 13
- compound: "COc1ccc(C2=C(Nc3cccc(O)c3)C(=O)NC2=O)cc1"
  scale unit: "%"
  test result: 0
- compound: "O=C(Nc1n[nH]c2nc(-c3ccccc3)ccc12)C1CC1"
  scale unit: "%"
  test result: 3
- compound: "Cc1nn2c(=O)cc(N3CCO[C@H](C)C3)nc2n1Cc1cccc(Cl)c1Cl"
  scale unit: "%"
  test result: 0

`Cl.N#CCc1ccc(Nc2nccc(Nc3ccc(Oc4ccccc4)cc3)n2)cc1` on MST3 gives %Inh = 0

`Nc1cccc(-c2ccc3c(N)n[nH]c3c2)c1` on MST3 gives %Inh = 21

`Cn1cc(-c2ccc3c(c2)CCN3C(=O)Cc2cc(F)cc(F)c2F)c2c(N)ncnc21` on MST3 gives %Inh = 4

`COC(=O)Nc1nc2ccc(Oc3ccc(NC(=O)Nc4cc(C(F)(F)F)ccc4F)cc3)cc2[nH]1.Cl` on MST3 gives %Inh = 6

`Nc1ncc(-c2ccc3nccc(-c4ccncc4)c3c2)cc1S(=O)(=O)N1CCCCC1` on MST3 gives %Inh = 29

`COc1ccc(C)c(Nc2ccnc(Nc3ccc(-c4cnc[nH]4)cc3)n2)c1.Cl` on MST3 gives %Inh = 17

`Cc1ccc(Nc2ccnc(Nc3ccc(C)c(F)c3)n2)cc1O.Cl` on MST3 gives %Inh = 0

`CN(c1ccc(F)c(NC(=O)c2cccc(OC(C)(C)C#N)c2Cl)c1)c1ccc2nc(NC(=O)C3CC3)sc2n1` on MST3 gives %Inh = 0

`Fc1cc(Cl)ccc1Nc1ccnc2cc(-c3ccc(CN4CCOCC4)o3)ccc12` on MST3 gives %Inh = 0

`O=C1NC(=O)C(c2ccccc2Cl)=C1Nc1cccc(Cl)c1` on MST3 gives %Inh = 0

`CCNc1nccc(-c2c(-c3ccc(F)cc3)ncn2C2CCN(C)CC2)n1` on MST3 gives %Inh = 21

`Cn1cc(-c2cnc(N)c3c(-c4ccc5c(c4)CCN5C(=O)Cc4ccccc4)csc23)cn1` on MST3 gives %Inh = 7

`CC(C)(C)c1ccc(C(=O)Nc2cn3cc(-n4ccnc4)ccc3n2)cc1` on MST3 gives %Inh = 0

`CCNC(=O)/C=C/c1n[nH]c2cc(Sc3ccccc3C(=O)NC)ccc12` on MST3 gives %Inh = 30

`CN(c1ccc(NC(=O)Nc2cccc(Cl)c2)cc1)c1ccnc(N)n1.Cl` on MST3 gives %Inh = 0

`CNc1nccc(-c2ccc3c(N)n[nH]c3c2)n1` on MST3 gives %Inh = 13

`O=C(O)C(F)(F)F.O=c1[nH]ccc2nc(N[C@@H]3CCNC3)nc(Nc3cc(Cl)cc(Cl)c3)c12` on MST3 gives %Inh = 85

`O=C(Nc1n[nH]c2nc(-c3ccccc3O)ccc12)C1CC1` on MST3 gives %Inh = 0

`CCn1c(-c2nonc2N)nc2c(-c3ccccc3)ncc(OCCCN)c21.O=C(O)C(F)(F)F.O=C(O)C(F)(F)F` on MST3 gives %Inh = 38

`O=C(Nc1n[nH]c2nc(-c3cccc(O)c3)ccc12)C1CC1` on MST3 gives %Inh = 0

###

- Test system: ABL1-phosphorylated
- particulars: concentration: 1 μM, replicates: in singlicate; n = 1
assay readout: %Inh (%)
# output: bare number, implied unit %

Some entries whose results are on file:
- smiles code: "CNc1nccc(-c2ccc3c(N)n[nH]c3c2)n1"
  scale unit: "%"
  %Inh: 3
- smiles code: "COc1cc(Nc2ccnc3cc(-c4ccncc4)ccc23)cc(OC)c1OC.Cl"
  scale unit: "%"
  %Inh: 99.4
- smiles code: "COC(=O)Nc1nc2cc(Oc3ccc(NC(=O)Nc4cccc(SC)c4)cc3)ccc2[nH]1.Cl"
  scale unit: "%"
  %Inh: 90.1
- smiles code: "Cc1nn2c(=O)cc(N3CCO[C@H](C)C3)nc2n1Cc1cccc(Cl)c1Cl"
  scale unit: "%"
  %Inh: 0
- smiles code: "CN(C)c1ncnc2nc[nH]c12"
  scale unit: "%"
  %Inh: 27
- smiles code: "Cc1ccc(Nc2ccnc(Nc3ccc(C)c(F)c3)n2)cc1O.Cl"
  scale unit: "%"
  %Inh: 47

GET /value?item= `Cc1cc(-c2ccnc(Nc3cccc(C#N)c3)n2)cc(C)c1O` &field=%Inh returns 1

GET /value?item= `COC(=O)Nc1nc2ccc(Oc3ccc(CC(=O)Nc4cc(C(F)(F)F)ccc4F)cc3)cc2[nH]1` &field=%Inh returns 0

GET /value?item= `Cc1ccc(O)cc1Nc1ccnc2cc(-c3ccc(CN4CCCCC4)o3)ccc12` &field=%Inh returns 99.9

Every entry's value here was drawn from paper PMC5540273.
